src = patent US20100273203A1

Catalogue of % conjugated (proportion glucuronidated) readings, one per entry.
TEST_NAME: LC-MS/MS urinary metabolic profile of patients receiving warfarin
EXPERIMENTAL_CONDITIONS: patient F84; urine

# COMPOUND, % conjugated (proportion glucuronidated) [%]
measured = [
    ("CC(=O)CC(c1ccccc1)c1c(O)c2cccc(O)c2oc1=O (stereo not shown) [8-OH-WAR, 8-hydroxywarfarin]", 31),
    ("CC(=O)CC(c1ccccc1)c1c(O)c2ccc(O)cc2oc1=O (stereo not shown) [7-OH-WAR, 7-hydroxywarfarin]", 69),
    ("CC(=O)CC(c1ccc(O)cc1)c1c(O)c2ccccc2oc1=O (stereo not shown) [4′-OH-WAR, 4′-hydroxywarfarin]", 47),
    ("CC(=O)CC(c1ccccc1)c1c(O)c2cc(O)ccc2oc1=O (stereo not shown) [6-OH-WAR, 6-hydroxywarfarin]", 35),
]
